Listing: Cell viability (% of Con. 10 μM) HS746T of selected compounds
test system: HS746T cancer cells; assay: Anticancer activity, cell viability by CCK-8, HS746T; type: cell-based; conditions: 72 hours
metric.name: Cell viability (% of Con. 10 μM) HS746T

>>> result("CP(C)(=O)c1ccccc1Nc1nc(Nc2ccc3[nH]nc(-c4ccc(S(C)(=O)=O)cc4)c3c2)ncc1Cl [compound 114]")
"33 % of Con."
>>> result("COc1cc2c(cc1Nc1ncc(Cl)c(Nc3ccccc3P(C)(C)=O)n1)CN(C(=O)C(F)(F)F)CC2 [compound 62]")
"13 % of Con."
>>> result("CC(C)C1c2cc(Nc3ncc(Cl)c(Nc4ccccc4P(C)(C)=O)n3)ccc2CCN1C(=O)C(F)(F)F (stereo not drawn) [compound 53]")
"14 % of Con."
>>> result("Cn1cc(-c2n[nH]c3ccc(Nc4ncc(Cl)c(Nc5ccccc5P(C)(C)=O)n4)cc23)cn1 [compound 94]")
"15 % of Con."
>>> result("CC(C)C1c2cc(Nc3ncc(F)c(NC4CCN(S(C)(=O)=O)CC4)n3)ccc2CCN1C(=O)C(F)(F)F (stereo not drawn) [compound 58]")
"85 % of Con."
>>> result("Cc1nc2ccc(Nc3ncc(Cl)c(Nc4ccccc4P(C)(C)=O)n3)cc2s1 [compound 17]")
"17 % of Con."
>>> result("CP(C)(=O)c1ccccc1Nc1nc(Nc2ccc3cn[nH]c3c2)ncc1Cl [compound 64]")
"29 % of Con."
>>> result("CP(C)(=O)c1ccccc1Nc1nc(Nc2ccc3[nH]nc(-c4ccc(C=O)o4)c3c2)ncc1Cl [compound 92]")
"14.1 % of Con."
>>> result("CP(C)(=O)c1ccccc1Nc1nc(N2CCc3c(N)cccc3C2)ncc1Cl [compound 9]")
"104 % of Con."
>>> result("CP(C)(=O)c1ccccc1Nc1nc(Nc2ccncc2)ncc1Cl [compound 15]")
"110 % of Con."
>>> result("CP(C)(=O)c1ccccc1Nc1nc(Nc2ccc3[nH]nc(-c4ccc(OC(F)(F)F)cc4)c3c2)ncc1Cl [compound 110]")
"12 % of Con."
>>> result("Cc1cccc2sc(Nc3ncc(Cl)c(Nc4ccccc4P(C)(C)=O)n3)nc12 [compound 27]")
"74 % of Con."
>>> result("CP(C)(=O)c1ccccc1Nc1nc(Nc2ccc3[nH]nc(-c4ccccc4)c3c2)ncc1Cl [compound 96]")
"10 % of Con."
>>> result("CN(C)c1ncc(F)c(NC2CCN(S(C)(=O)=O)CC2)n1 [compound 37]")
"90 % of Con."
>>> result("CP(C)(=O)c1ccccc1Nc1nc(Nc2ccc3c(c2)CCNC3)ncc1Cl [compound 49]")
"0.3 % of Con."
>>> result("CP(C)(=O)c1ccccc1Nc1ncc(Cl)c(Nc2ccccc2P(C)(C)=O)n1 [compound 30]")
"85 % of Con."
>>> result("CC(=O)N1CC=C(c2n[nH]c3ccc(Nc4ncc(Cl)c(Nc5ccccc5P(C)(C)=O)n4)cc23)CC1 [compound 99]")
"9 % of Con."
>>> result("Cc1cc(Nc2ncc(Cl)c(Nc3ccccc3P(C)(C)=O)n2)ccn1 [compound 10]")
"120 % of Con."

###

Listing: Cell viability (% of Con. 10 μM) HS746T of selected molecules
tested on: HS746T cancer cells; assay: Anticancer activity, cell viability by CCK-8, HS746T; assay type: cell-based; details: 72 hours
metric.name: Cell viability (% of Con. 10 μM) HS746T

>>> result("CP(C)(=O)c1ccccc1Nc1nc(Nc2cnc3[nH]nc(-c4cccnc4F)c3c2)ncc1Cl")
"10 % of Con."
>>> result("CP(C)(=O)c1ccccc1Nc1nc(Nc2ccc3[nH]nc(-c4ccncc4)c3c2)ncc1Cl")
"11 % of Con."
>>> result("Cc1cc2cc(Nc3ncc(Cl)c(Nc4ccccc4P(C)(C)=O)n3)ccc2[nH]1")
"23 % of Con."
>>> result("CP(C)(=O)c1ccccc1Nc1nc(NC2CCCCC2)ncc1Cl")
"64 % of Con."
